Molecular target: 30S IC (30S-bound IF2, Bpy-tRNAi) (Escherichia coli, UniProt P0A705)
Construct: 6xHis (N); made in house
Sequence (P0A705 whole entry, looked up): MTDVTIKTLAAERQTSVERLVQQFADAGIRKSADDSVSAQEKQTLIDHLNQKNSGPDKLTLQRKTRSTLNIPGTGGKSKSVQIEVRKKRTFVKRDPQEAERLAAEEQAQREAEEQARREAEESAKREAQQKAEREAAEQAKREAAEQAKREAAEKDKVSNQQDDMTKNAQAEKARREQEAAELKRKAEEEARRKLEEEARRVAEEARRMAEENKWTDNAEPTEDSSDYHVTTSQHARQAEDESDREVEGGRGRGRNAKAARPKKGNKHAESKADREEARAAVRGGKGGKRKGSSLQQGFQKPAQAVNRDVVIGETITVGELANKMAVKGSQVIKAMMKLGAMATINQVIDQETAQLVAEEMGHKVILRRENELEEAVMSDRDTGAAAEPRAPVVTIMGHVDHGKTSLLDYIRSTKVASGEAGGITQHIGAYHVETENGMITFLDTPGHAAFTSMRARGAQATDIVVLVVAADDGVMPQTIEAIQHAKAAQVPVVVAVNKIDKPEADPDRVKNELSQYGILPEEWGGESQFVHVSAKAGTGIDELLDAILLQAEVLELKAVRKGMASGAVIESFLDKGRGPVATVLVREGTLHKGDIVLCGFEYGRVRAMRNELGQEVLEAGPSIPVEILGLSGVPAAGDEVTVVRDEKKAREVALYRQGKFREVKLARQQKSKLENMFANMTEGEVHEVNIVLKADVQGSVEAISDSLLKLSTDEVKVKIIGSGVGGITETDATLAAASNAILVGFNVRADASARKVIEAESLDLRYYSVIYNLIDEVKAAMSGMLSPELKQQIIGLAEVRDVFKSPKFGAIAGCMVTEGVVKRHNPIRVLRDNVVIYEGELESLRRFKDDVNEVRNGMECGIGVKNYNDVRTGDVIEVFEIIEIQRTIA
Assay: 30S IC formation measured by MST at increasing concentrations of IF2 with guanosine nucleotides
Format: binding
Details: Fig 2A; IF2 0.63 µM
Please respond with reported MST Average for every item in the list.
State the answer as a number, implicitly in a.u..

What value of MST Average has been reported for the following compound? Nc1nc2c(ncn2[C@@H]2O[C@H](COP(=O)(O)OP(=O)(O)O)[C@@H](O)[C@H]2O)c(=O)[nH]1 [GDP, guanosine diphosphate]
949.91

# query: MST Average of entry Nc1nc2c(ncn2[C@@H]2O[C@H](COP(=O)(O)OP(=O)(O)OP(=O)(O)O)[C@@H](OP(=O)(O)OP(=O)(O)O)[C@H]2O)c(=O)[nH]1 [pppGpp]
965.81

Need MST Average of Nc1nc2c(ncn2[C@@H]2O[C@H](COP(=O)(O)OP(=O)(O)OP(=O)(O)O)[C@@H](O)[C@H]2O)c(=O)[nH]1 [GTP, guanosine triphosphate] , thanks.
1093.32

Look up MST Average for this compound: Nc1nc2c(ncn2[C@@H]2O[C@H](COP(=O)(O)OP(=O)(O)O)[C@@H](OP(=O)(O)OP(=O)(O)O)[C@H]2O)c(=O)[nH]1 [ppGpp]
941.79

* * *

Tested on: mRNA translation (protein synthesis)
Assay: In vitro translation in pure cell-free system (PURExpress, Lumio labelling)
Format: biochemical
Settings: mRNA mInfA; read-out: Translation Efficiency Ki Average
Procedure: Fig 5 Permissive ppGpp-mediated inhibition of mRNA translation. (A) Scheme of the translating 70S complex. […] The resulting images were analyzed by pixel densitometry using ImageJ [37] to estimate translation efficiencies (TEs). […] (D) Comparison of inhibitory constants for both mRNAs as measured during 30S IC formation (white) or overall translation efficiency (gray). […]
test.readout: pKi
Here pKi is given on a logarithmic scale as minus log10 of the concentration in mol/L.

Could you tell me which pKi is on file for Nc1nc2c(ncn2[C@@H]2O[C@H](COP(=O)(O)OP(=O)(O)O)[C@@H](OP(=O)(O)OP(=O)(O)O)[C@H]2O)c(=O)[nH]1 [ppGpp] ?
6.10

* * *

Target: 30S-bound IF2 (30S IC) (Escherichia coli, UniProt P0A705)
Construct: 6xHis (N); made in house
Sequence (P0A705 whole entry, looked up): as above
Assay: ppGpp (or GDP) to GTP competitive assay for 30S IC formation by MST
Format: binding
Conditions: mRNA mMF1; read-out: IC50 Average
Procedure: MST was calculated from the respective fluorescence time dependencies (S3 Fig). […] Symbols as in (B). […] Continuous lines indicate nonlinear regression fittings with quadratic (B and E) or same-site competition (G) functions. Three measurements were performed; mean and standard deviations are plotted (S1 Data). […] Symbols are as indicated, 3 measurements were performed, and mean and standard deviation are plotted (S1 Data). […]
test.readout: IC50 (µM)
Enter your answer as a number in µM; do not include the unit.

Short answer please: IC50, 30S-bound IF2 (30S IC) (Escherichia coli, UniProt P0A705), entry Nc1nc2c(ncn2[C@@H]2O[C@H](COP(=O)(O)OP(=O)(O)O)[C@@H](O)[C@H]2O)c(=O)[nH]1 [GDP, guanosine diphosphate]
38.6

Record lookup: for 30S-bound IF2 (30S IC) (Escherichia coli, UniProt P0A705), what IC50 belongs to Nc1nc2c(ncn2[C@@H]2O[C@H](COP(=O)(O)OP(=O)(O)O)[C@@H](OP(=O)(O)OP(=O)(O)O)[C@H]2O)c(=O)[nH]1 ?
8.64

* * *

Target: 30S-bound IF2 (30S IC) (Escherichia coli)
Construct: 6xHis (N); made in house
Test: ppGpp (or GDP) to GTP competitive assay for 30S IC formation by MST
Assay type: binding
Conditions: read-out: IC50 of 30S IC formation; mMF1; competition with 50 μM GTP
test.readout: IC50 (µM)
Record the value in µM, omitting the unit from your answer.

Suppose we examine the compound Nc1nc2c(ncn2[C@@H]2O[C@H](COP(=O)(O)OP(=O)(O)O)[C@@H](OP(=O)(O)OP(=O)(O)O)[C@H]2O)c(=O)[nH]1 ; what IC50 value has been reported?
8.6

* * *

Biological target: IF2-bound 30S IC (Escherichia coli, UniProt P0A705)
Construct: 6xHis (N); made in house
Experiment: 30S IC formation by MST, guanosine nucleotide titration
Type: binding
Conditions: KD of GTP for the 30S IC, 30S IC programmed with mInfA
test.readout: Kd

May I ask what Kd has been recorded for Nc1nc2c(ncn2[C@@H]2O[C@H](COP(=O)(O)OP(=O)(O)OP(=O)(O)O)[C@@H](O)[C@H]2O)c(=O)[nH]1 [GTP, guanosine triphosphate] ?
1900 nM

* * *

Target: 30S-bound IF2 (30S IC) (Escherichia coli)
Construct: 6xHis (N); made in house
Test: ppGpp (or GDP) to GTP competitive assay for 30S IC formation by MST
Format: binding
Settings: read-out: IC50 of 30S IC formation; mInfA; competition with 50 μM GTP
test.readout: IC50
# number then unit; no other words

Please look up its IC50: Nc1nc2c(ncn2[C@@H]2O[C@H](COP(=O)(O)OP(=O)(O)O)[C@@H](OP(=O)(O)OP(=O)(O)O)[C@H]2O)c(=O)[nH]1
29 µM

* * *

Molecular target: 30S IC (Escherichia coli, UniProt P0A705)
Sequence (P0A705 whole entry, looked up): as above
Experiment: ppGpp tolerance of 30S IC formation by MST
Assay type: binding
Parameters: 6xHis (N); made in house
Settings: mRNA mInfA; read-out: 30S IC Ki Average
test.readout: Ki (nM)
Write it as a number; the unit nM goes unstated.

Lookup: Ki / 30S IC (Escherichia coli, UniProt P0A705) / Nc1nc2c(ncn2[C@@H]2O[C@H](COP(=O)(O)OP(=O)(O)O)[C@@H](OP(=O)(O)OP(=O)(O)O)[C@H]2O)c(=O)[nH]1
587

* * *

Task for the reader: assign each of the following compounds its reported MST Average.
Biological target: 30S IC (30S-bound IF2, Bpy-tRNAi) (Escherichia coli, UniProt P0A705)
Construct: 6xHis (N); made in house
Assay: 30S IC formation measured by MST at increasing concentrations of IF2 with guanosine nucleotides
Format: binding
Details: Fig 2A; IF2 2.50 µM
Numbers only here, please. The scale is a.u..

So what does the record say about MST Average for Nc1nc2c(ncn2[C@@H]2O[C@H](COP(=O)(O)OP(=O)(O)O)[C@@H](OP(=O)(O)OP(=O)(O)O)[C@H]2O)c(=O)[nH]1 ?
949.26

Requested read-out: MST Average. Entry: Nc1nc2c(ncn2[C@@H]2O[C@H](COP(=O)(O)OP(=O)(O)OP(=O)(O)O)[C@@H](O)[C@H]2O)c(=O)[nH]1 [GTP, guanosine triphosphate]
1077.58

I would be grateful if you could share the reported MST Average for Nc1nc2c(ncn2[C@@H]2O[C@H](COP(=O)(O)OP(=O)(O)O)[C@@H](O)[C@H]2O)c(=O)[nH]1 [GDP, guanosine diphosphate] .
966.51

What value of MST Average has been recorded for this entry: Nc1nc2c(ncn2[C@@H]2O[C@H](COP(=O)(O)OP(=O)(O)OP(=O)(O)O)[C@@H](OP(=O)(O)OP(=O)(O)O)[C@H]2O)c(=O)[nH]1
1020.82

* * *

Biological target: 30S-bound IF2 (30S IC) (Escherichia coli, UniProt P0A705)
Construct: 6xHis (N); made in house
Experiment: ppGpp (or GDP) to GTP competitive assay for 30S IC formation by MST
Type: binding
Conditions: read-out: IC50 of 30S IC formation; mTufA with SRs I–III removed (+371)
test.readout: pIC50
# pIC50 = -log10(concentration in molar units)

What value of pIC50 has been reported for the following molecule? Nc1nc2c(ncn2[C@@H]2O[C@H](COP(=O)(O)OP(=O)(O)O)[C@@H](OP(=O)(O)OP(=O)(O)O)[C@H]2O)c(=O)[nH]1
4.30

* * *

Molecular target: 30S IC (30S-bound IF2, Bpy-tRNAi) (Escherichia coli, UniProt P0A705)
Construct: 6xHis (N); made in house
Experiment: 30S IC formation measured by MST at increasing concentrations of IF2 with guanosine nucleotides
Assay type: binding
Settings: Fig 2A; IF2 1.25 µM
test.readout: MST Average (a.u.)
Return type: number; implicit unit a.u..

MST Average for Nc1nc2c(ncn2[C@@H]2O[C@H](COP(=O)(O)OP(=O)(O)OP(=O)(O)O)[C@@H](O)[C@H]2O)c(=O)[nH]1 [GTP, guanosine triphosphate] ?
1094.97

Which MST Average is reported for this compound? Nc1nc2c(ncn2[C@@H]2O[C@H](COP(=O)(O)OP(=O)(O)OP(=O)(O)O)[C@@H](OP(=O)(O)OP(=O)(O)O)[C@H]2O)c(=O)[nH]1
989.55

// MST Average lookup, key: Nc1nc2c(ncn2[C@@H]2O[C@H](COP(=O)(O)OP(=O)(O)O)[C@@H](O)[C@H]2O)c(=O)[nH]1 [GDP, guanosine diphosphate]
961.16

Item under review: Nc1nc2c(ncn2[C@@H]2O[C@H](COP(=O)(O)OP(=O)(O)O)[C@@H](OP(=O)(O)OP(=O)(O)O)[C@H]2O)c(=O)[nH]1 . Reported MST Average?
942.39
